The values you see were collected from patent US20250195521A1.

- Tested On: KRAS G12D (Homo sapiens (Human), UniProt P01116+P62937, G12D)
- Sequence (P01116 other isoform, or with tags, fused parts or gaps G12D): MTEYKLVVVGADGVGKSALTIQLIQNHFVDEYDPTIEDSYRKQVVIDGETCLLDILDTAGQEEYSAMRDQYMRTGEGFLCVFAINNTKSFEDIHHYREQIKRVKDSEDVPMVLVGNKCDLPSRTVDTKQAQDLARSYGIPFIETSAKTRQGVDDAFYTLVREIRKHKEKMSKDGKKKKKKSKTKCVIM
- Sequence (P62937 whole entry): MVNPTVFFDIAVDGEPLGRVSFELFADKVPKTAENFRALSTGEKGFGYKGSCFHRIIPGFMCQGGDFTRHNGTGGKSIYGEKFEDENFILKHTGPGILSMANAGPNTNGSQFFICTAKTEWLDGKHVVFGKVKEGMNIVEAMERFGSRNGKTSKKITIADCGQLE
- Test Name: Ras-Raf disruption/FRET/MOA assay (BRAF RBD, Cyclophilin A)
- Format: biochemical
- Settings: read-out: KRAS G12D FRET IC50
pIC50: −log10 of the molar value.
Readout Name: pIC50

Given item "CCn1c(-c2cccnc2[C@H](C)OC)c2c3cc(ccc31)-c1csc(n1)C[C@H](NC(=O)[C@H](C(C)C)N(C)C(=O)N1C[C@H]3CN(C)CC[C@H]31)C(=O)N1CCC[C@H](N1)C(=O)OCC(C)(C)C2" , the value recorded as its pIC50 is 5.00 to 6.00

Data point: "CCn1c(-c2cnccc2COC)c2c3cc(ccc31)-c1cc(O)cc(c1)C[C@H](NC(=O)[C@H](C(C)C)N(C)c1nccs1)C(=O)N1CCC[C@H](N1)C(=O)OCC(C)(C)C2" ; pIC50 = < 5.00

pIC50 reading for "CCn1c(-c2cccnc2[C@H](C)OC)c2c3cc(ccc31)-c1csc(n1)C[C@H](NC(=O)[C@H](C(C)C)N(C)C(=O)N1CCC13CCS(=O)(=O)CC3)C(=O)N1CCC[C@H](N1)C(=O)OCC(C)(C)C2" : 5.00 to 6.00

Consider "CCn1c(-c2cccnc2[C@H](C)OC)c2c3cc(ccc31)-c1cc(O)cc(c1)C[C@H](NC(=O)[C@H](C(C)C)N(C)C(=O)OCc1ccccc1)C(=O)N1CCC[C@H](N1)C(=O)OCC(C)(C)C2" . Its measured pIC50 is < 5.00

The recorded pIC50 for "CCn1c(-c2cccnc2[C@H](C)OC)c2c3cc(ccc31)-c1csc(n1)C[C@H](NC(=O)[C@H](C(C)C)N(C)C(=O)N1C[C@H](N)[C@@H](O)C1)C(=O)N1CCC[C@H](N1)C(=O)OCC(C)(C)C2" is 6.00 to 7.00

Reported pIC50 ( "CCn1c(-c2ccccc2[C@H](C)OC)c2c3cc(ccc31)-c1csc(n1)C[C@H](NC(=O)[C@H](C(C)C)N(C)C(=O)[C@H]1CCN(C(=O)OC3COC3)C1)C(=O)N1CCC[C@H](N1)C(=O)OCC(C)(C)C2" ) = < 5.00

Note to self: pIC50 recorded for "CCn1c(-c2cnccc2COC)c2c3cc(ccc31)-c1cc(O)cc(c1)C[C@H](NC(=O)[C@H](C(C)C)N(C)C(=O)C1CNC1)C(=O)N1CCC[C@H](N1)C(=O)OCC(C)(C)C2" was 6.00 to 7.00

Value of pIC50 reported for the molecule "CCn1c(-c2cc(N3CCN(C)CC3)cnc2[C@H](C)OC)c2c3cc(ccc31)-c1csc(n1)C[C@H](NC(=O)[C@H](C(C)C)N(C)C(=O)[C@@H]1OCC[C@@H]1c1ccncc1)C(=O)N1CCC[C@H](N1)C(=O)OCC(C)(C)C2" is 6.00 to 7.00

pIC50 recorded for this molecule, "CCn1c(-c2cnccc2COC)c2c3cc(ccc31)-c1cc(O)cc(c1)C[C@H](NC(=O)[C@H](C(C)C)N(C)c1cnc(N)[nH]c1=O)C(=O)N1CCC[C@H](N1)C(=O)OCC(C)(C)C2" , is < 5.00
